Reference for the values: PubChem BioAssay (NCI)

# System: PC-3 prostate
# Method notes: NCI tumour cell line growth inhibition, 48 h
Reported property: TGI

The examples below pair each entry with its known result.
>>> value_observed("COc1cc(C2c3cc4c(cc3[C@@H](Nc3ccc(F)cc3)C3CO[C@@H](O)[C@H]23)OCO4)cc(OC)c1O (stereo not given in full)")
"> 25 µM"
>>> value_observed("COC(=O)C1(CCC(=O)N(C)c2ccccc2)NNC2C(=O)N(c3ccccc3)C(=O)C21 (stereo not given)")
"> 10 µM"
>>> value_observed("CO/C(=N\\N=C\\c1ccccc1F)c1ccncc1")
"> 10 µM"

[ask] Kindly state the measured TGI obtained for CCCCCC[n+]1noc(N)c1-c1ccc(-c2c(N)on[n+]2CCCCCC)cc1 with PC-3 prostate.
[reply] 16.8 µg/mL

[ask] Give TGI (PC-3 prostate) of the following compound: [N-]=[N+]=Nc1cccc(-c2n[nH]c(Cl)cc2=O)c1
[reply] > 100 µM

---

# Tested on: UACC-62 melanoma
# Method notes: NCI tumour cell line growth inhibition, 48 h
Measured GI50 of individual entries

>>> value_observed("COc1cc2c(cc1OCCCCCN1CCN(CCCCCOc3cc4c(cc3OC)C(=O)C3CCC[C@H]3C=N4)CC1)N=C[C@@H]1CCCC1C2=O (stereo not given in full)")
"2.35 µM"
>>> value_observed("NS(=O)(=O)c1ccc(N=Nc2c(O)[nH]c3ccc(Cl)cc23)cc1")
"> 15.2 µM"
>>> value_observed("CCCCCCC(O)(c1ccc(F)cc1)C(CN1CCOCC1)c1ccccc1 (stereo not given)")
"11.4 µM"
>>> value_observed("O=C(Nc1ccccc1C(=O)N/N=C(\\c1ccccc1)c1ccccn1)c1ccccc1")
"0.496 µM"
>>> value_observed("CCC(C)CN=C(N)c1ccc(N2CCN(c3ccc(C(N)=NCC(C)CC)cc3)CC2)cc1 (stereo not given)")
"11.4 µM"
>>> value_observed("O=C(NNC(=O)c1ccccc1S)c1ccccc1S")
"27.5 µM"
>>> value_observed("O=S(=O)(Nc1ccc2ccccc2c1)N1CCCCC1")
"8.7 µM"
>>> value_observed("CCCCCCCCn1ccc2cc(NC(=O)Cn3cc(CN4CCN(CC)CC4)nn3)ccc21")
"1.91 µM"
>>> value_observed("CC(C)(C(=O)NCC(F)(F)C(F)(F)F)C(=O)N[C@@H]1C(=O)Nc2ccccc2-c2ccccc21")
"29.2 µM"

[ask] Lab note: need GI50 with UACC-62 melanoma for entry CCCCCN1C(=O)/C(=c2\sc3n(c2=O)C2C(NN=3)N(CC)C(=O)N2CC)c2ccccc21 (stereo not given) , please look it up.
[reply] 1.06 µM

---

Items are presented alongside their recorded TGI.
# System: MDA-N
# Method notes: NCI tumour cell line growth inhibition, 48 h

>>> value_observed("Cc1ccc(S(=O)(=O)C2=C([Si](C)(C)C)C3CC2[C@@H]2C4C=CC(CC4)[C@H]32)cc1 (stereo not given in full)")
"> 100 µM"

[ask] Can you look up the measured TGI of CC1CC(c2ccccc2)Nc2nc3ccccc3n21 (stereo not given) for me?
[reply] > 100 µM

[ask] Dear colleague, I am looking for the recorded TGI of the following molecule: O=S(=O)(Nc1nc2ccccc2n1S(=O)(=O)c1ccccc1)c1ccccc1
[reply] > 100 µM

[ask] Requested read-out: TGI. Entry: COC(=O)Nc1nc2ccc(NS(=O)(=O)c3ccc(Cl)cc3)cc2[nH]1
[reply] 5.93 µM
